Source: PubChem BioAssay AID1963828

system: 991263-137-R1-J2-PDC complex spheroid viability; test: Anticancer human tumor 991263-137-R1-J2-PDC patient-derived colon adenocarcinoma cell line growth inhibition [POLQ]; details: second compound 10 µM; first compound 0.1 µM; stronger effect = lower value;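 note: spheroids exposed to compounds for 7 days before readout; 100% = DMSO vehicle control viability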
Below, each entry is listed with its recorded viability, T/C.
Response body: numeric value in %, unit text excluded.

These solved cases illustrate the format of a correct answer.
1) CCc1c2c(nc3ccc(O)cc13)-c1cc3c(c(=O)n1C2)COC(=O)[C@]3(O)CC + Cc1cccc(N(C)C(=O)C2C(O)CCN2c2nc(C)cc(C(F)(F)F)c2C#N)c1	53.2
2) COc1cc(C2c3cc4c(cc3C(OC3OC5COC(C)OC5C(O)C3O)C3COC(=O)C23)OCO4)cc(OC)c1O (stereo not drawn) + Nc1ccc(C#CCN(C(=O)Cc2ncc(C(F)(F)F)cc2C(F)(F)F)c2ccc(F)cc2)nn1	96.1

Moving on to another molecule below.
Data request: Can you look up the measured viability, T/C of CC[C@@]1(O)C(=O)OCc2c1cc1n(c2=O)Cc2cc3c(CN(C)C)c(O)ccc3nc2-1 + Nc1ccc(C#CCN(C(=O)Cc2ncc(C(F)(F)F)cc2C(F)(F)F)c2ccc(F)cc2)nn1 for me?
Data returned: 66.6
